# target: D(2) dopamine receptor (Homo sapiens)
# protocol.description: Beta-Arrestin HTS for Positive Allosteric Modulators of the Human D2 Dopamine Receptor: Potentiators
# recorded.conditions: DiscoveRx D2 beta-arrestin cells, luminescence, 90 min; 100% = 57 uM dopamine signal
The campaign covered roughly 360,000 compounds. About 810 (0.23%) were called active. No stated cut-off is given here; in the data, active means potentiation above about 50%; inconclusive means mostly about 30% to 49%; inactive means weaker than that. Many of the other results were omitted from the sample, so actives are more common in it than they were.
Classes used: true (1) for active, false (0) for inactive

[
  {
    "molecule": "CC1CCN(C(=S)c2cccc([N+](=O)[O-])c2)CC1",
    "target": "D(2) dopamine receptor (Homo sapiens)",
    "group": "false (0)"
  },
  {
    "molecule": "COc1cc2c(cc1OC)CN(C(C)C(=O)Nc1cccc(S(=O)(=O)N3CCOCC3)c1)CC2 (stereo not given)",
    "target": "D(2) dopamine receptor (Homo sapiens)",
    "group": "false (0)"
  },
  {
    "molecule": "O=C(N/N=C/c1ccc([N+](=O)[O-])cc1)c1c[nH]c2ccccc12",
    "target": "D(2) dopamine receptor (Homo sapiens)",
    "group": "true (1)"
  },
  {
    "molecule": "O=C(Oc1ccccc1C(=S)N1CCCCC1)c1cc([N+](=O)[O-])cc([N+](=O)[O-])c1",
    "target": "D(2) dopamine receptor (Homo sapiens)",
    "group": "true (1)"
  },
  {
    "molecule": "O=C(Cc1c[nH]c2ccccc12)N/N=C/c1cccc(F)c1",
    "target": "D(2) dopamine receptor (Homo sapiens)",
    "group": "false (0)"
  },
  {
    "molecule": "COc1cccc(N(CC(=O)NCc2ccccc2)C(=O)CCC(=O)Nc2nccs2)c1",
    "target": "D(2) dopamine receptor (Homo sapiens)",
    "group": "false (0)"
  },
  {
    "molecule": "NC(Cc1ccc(F)cc1)c1csc(Nc2nncc3ccccc23)n1 (stereo not given)",
    "target": "D(2) dopamine receptor (Homo sapiens)",
    "group": "false (0)"
  },
  {
    "molecule": "O=C(COc1ccc(/C=N/NC(=O)c2ccc(O)cc2)cc1)Nc1ccc([N+](=O)[O-])cc1",
    "target": "D(2) dopamine receptor (Homo sapiens)",
    "group": "false (0)"
  },
  {
    "molecule": "COC(=O)c1cc(S(=O)(=O)N2CCC(C(N)=O)CC2)oc1C",
    "target": "D(2) dopamine receptor (Homo sapiens)",
    "group": "false (0)"
  },
  {
    "molecule": "Cc1ccc(NC(=O)CN(C)S(=O)(=O)c2cnc[nH]2)cc1C",
    "target": "D(2) dopamine receptor (Homo sapiens)",
    "group": "false (0)"
  }
]
